# test_details: Cytotoxicity against BALB/c mouse splenocytes at 100 uM after 48 hrs by MTT assay
# Format: cell-based, Splenocyte
# run_parameters: read-out: INH
Documented cytotoxicity at 48 h, 100 µM across a set of molecules

cpd_smiles: COc1cc(OC)c2c(OC(=O)c3cccc(I)c3)ccnc2c1
units_label: %
cytotoxicity at 48 h, 100 µM: 11.6

cpd_smiles: COc1cc(OC)c2c(O[C@@H]3OC[C@@H](O)[C@H](O)[C@H]3O)ccnc2c1
units_label: %
cytotoxicity at 48 h, 100 µM: 11.2

cpd_smiles: COc1cc(OC)c2c(OC(=O)c3ccccc3[N+](=O)[O-])ccnc2c1
units_label: %
cytotoxicity at 48 h, 100 µM: 33.4

cpd_smiles: COc1cc(OC)c2c(OC(=O)c3ccc(Br)cc3)ccnc2c1
units_label: %
cytotoxicity at 48 h, 100 µM: 20.7

cpd_smiles: CCCCCCCC/C=C\CCCCCCCC(=O)Oc1ccnc2cc(OC)cc(OC)c12
units_label: %
cytotoxicity at 48 h, 100 µM: 7.2

cpd_smiles: Cc1cc(=O)c2c(O)cc(O)cc2[nH]1
units_label: %
cytotoxicity at 48 h, 100 µM: 11.2

cpd_smiles: COc1cc(OC)c2c(O[C@@H]3O[C@H](CO)[C@H](O)[C@H](O)[C@H]3O)ccnc2c1
units_label: %
cytotoxicity at 48 h, 100 µM: 17

cpd_smiles: O=c1cc[nH]c2cc(O)cc(O)c12
units_label: %
cytotoxicity at 48 h, 100 µM: 8.6

cpd_smiles: COc1cc(OC)c2c(OC(=O)c3ccccc3)cc(C)nc2c1
units_label: %
cytotoxicity at 48 h, 100 µM: 13.7

cpd_smiles: COc1cc(OC)c2c(OS(=O)(=O)c3ccc(C)cc3)ccnc2c1
units_label: %
cytotoxicity at 48 h, 100 µM: 13.2

cpd_smiles: COc1cc(OC)c2c(O[C@@H]3O[C@H](CO)[C@@H](O)[C@H](O)[C@H]3O)ccnc2c1
units_label: %
cytotoxicity at 48 h, 100 µM: 9.5

cpd_smiles: COc1cc(OC)c2c(OC(=O)c3ccc(Cl)cc3)ccnc2c1
units_label: %
cytotoxicity at 48 h, 100 µM: 21.9

cpd_smiles: COc1cc(OC)c2c(OC(=O)c3ccc([N+](=O)[O-])cc3)ccnc2c1
units_label: %
cytotoxicity at 48 h, 100 µM: 9.5

====

# test_details: Cytotoxicity against BALB/c mouse splenocytes at 100 uM after 48 hrs by MTT assay
# Assay type: cell-based, Splenocyte
# run_parameters: read-out: INH
Reported cytotoxicity at 48 h, 100 µM values for the following molecules.

cpd_smiles: COc1cc(OC)c2c(OC(=O)c3cccc(Br)c3)ccnc2c1
units_label: %
cytotoxicity at 48 h, 100 µM: 21
--
cpd_smiles: COc1cc(OC)c2c(OC(=O)c3ccccc3I)ccnc2c1
units_label: %
cytotoxicity at 48 h, 100 µM: 54.7
--
cpd_smiles: COc1cc(OC)c2c(OC(=O)c3ccccc3)ccnc2c1
units_label: %
cytotoxicity at 48 h, 100 µM: 7.7
--
cpd_smiles: COC(=O)c1ccc(C(=O)Oc2ccnc3cc(OC)cc(OC)c23)cc1
units_label: %
cytotoxicity at 48 h, 100 µM: 23.6
--
cpd_smiles: COc1cc(OC)c2c(OC(=O)c3ccccc3Cl)ccnc2c1
units_label: %
cytotoxicity at 48 h, 100 µM: 39.8
--
cpd_smiles: COc1cc(OC)c2c(OC(=O)c3ccccc3Br)ccnc2c1
units_label: %
cytotoxicity at 48 h, 100 µM: 29.2
--
cpd_smiles: COc1cc(OC)c2c(OC(=O)c3cccc([N+](=O)[O-])c3)ccnc2c1
units_label: %
cytotoxicity at 48 h, 100 µM: 12.2
--
cpd_smiles: COc1cc(OC)c2c(OC(=O)c3cc([N+](=O)[O-])cc([N+](=O)[O-])c3)ccnc2c1
units_label: %
cytotoxicity at 48 h, 100 µM: 13.4
--
cpd_smiles: COc1cc(OC)c2c(OC(=O)c3ccc(I)cc3)ccnc2c1
units_label: %
cytotoxicity at 48 h, 100 µM: 23.4
--
cpd_smiles: COc1cc(OC)c2c(=O)cc[nH]c2c1
units_label: %
cytotoxicity at 48 h, 100 µM: 7.5
--
cpd_smiles: COc1cc(OC)c2c(OC(=O)c3ccccc3C)ccnc2c1
units_label: %
cytotoxicity at 48 h, 100 µM: 64
--
cpd_smiles: CCCCC(=O)Oc1ccnc2cc(OC)cc(OC)c12
units_label: %
cytotoxicity at 48 h, 100 µM: 9.4
--
cpd_smiles: CCCCCCCCC(=O)Oc1ccnc2cc(OC)cc(OC)c12
units_label: %
cytotoxicity at 48 h, 100 µM: 11.6
--
cpd_smiles: COc1cc(OC)c2c(OC(=O)c3ccccc3F)ccnc2c1
units_label: %
cytotoxicity at 48 h, 100 µM: 19.5
--
cpd_smiles: COc1ccc(C(=O)Oc2ccnc3cc(OC)cc(OC)c23)cc1
units_label: %
cytotoxicity at 48 h, 100 µM: 13.4
--
cpd_smiles: COc1cc(OC)c2c(OC(=O)c3cc(Br)cc(Br)c3)ccnc2c1
units_label: %
cytotoxicity at 48 h, 100 µM: 6.3
--
cpd_smiles: COc1cc(OC)c2c(OC(=O)c3cc(Cl)cc(Cl)c3)ccnc2c1
units_label: %
cytotoxicity at 48 h, 100 µM: 7.2
--
cpd_smiles: COc1cc(OC)c2c(=O)cc(C)[nH]c2c1
units_label: %
cytotoxicity at 48 h, 100 µM: 23.6
--
cpd_smiles: COc1cc(OC)c2c(OC(C)=O)ccnc2c1
units_label: %
cytotoxicity at 48 h, 100 µM: 11.3
--
cpd_smiles: COc1cc(OC)c2c(OC(=O)c3cccc(Cl)c3)ccnc2c1
units_label: %
cytotoxicity at 48 h, 100 µM: 12.2
--
cpd_smiles: COc1cc(OC)c2c(OC(=O)c3ccccc3OC)ccnc2c1
units_label: %
cytotoxicity at 48 h, 100 µM: 47.9
--
cpd_smiles: COc1cc(OC)c2c(OC(=O)c3ccccc3I)cc(C)nc2c1
units_label: %
cytotoxicity at 48 h, 100 µM: 37.6
--
cpd_smiles: COc1cc(OC)c2c(OC(=O)c3c(Cl)cccc3Cl)ccnc2c1
units_label: %
cytotoxicity at 48 h, 100 µM: 83.4
--
cpd_smiles: COc1cc(OC)c2c(OC(=O)c3ccc(Cl)cc3Cl)ccnc2c1
units_label: %
cytotoxicity at 48 h, 100 µM: 22.7

====

# test_details: Cytotoxicity against BALB/c mouse splenocytes at 30 uM after 48 hrs by MTT assay
# Format: cell-based, Splenocyte
# run_parameters: read-out: INH
cytotoxicity at 48 h, 30 µM vs 9%: at or above is satisfied, below is not satisfied.

cpd_smiles: COc1cc(OC)c2c(OC(=O)c3ccccc3I)ccnc2c1
group_label: satisfied

cpd_smiles: COc1cc(OC)c2c(OC(=O)c3ccc(I)cc3)ccnc2c1
group_label: not satisfied

cpd_smiles: COc1cc(OC)c2c(OC(=O)c3cc(Br)cc(Br)c3)ccnc2c1
group_label: satisfied

cpd_smiles: COc1ccc(C(=O)Oc2ccnc3cc(OC)cc(OC)c23)cc1
group_label: satisfied

cpd_smiles: COC(=O)c1ccc(C(=O)Oc2ccnc3cc(OC)cc(OC)c23)cc1
group_label: not satisfied

cpd_smiles: COc1cc(OC)c2c(OC(=O)c3cc(Cl)cc(Cl)c3)ccnc2c1
group_label: satisfied

cpd_smiles: COc1cc(OC)c2c(OC(=O)c3ccccc3[N+](=O)[O-])ccnc2c1
group_label: satisfied

cpd_smiles: COc1cc(OC)c2c(OC(=O)c3ccccc3OC)ccnc2c1
group_label: satisfied

cpd_smiles: COc1cc(OC)c2c(OC(=O)c3ccc(Cl)cc3Cl)ccnc2c1
group_label: satisfied

cpd_smiles: CCCCCCCCC(=O)Oc1ccnc2cc(OC)cc(OC)c12
group_label: not satisfied

cpd_smiles: COc1cc(OC)c2c(OC(=O)c3cc([N+](=O)[O-])cc([N+](=O)[O-])c3)ccnc2c1
group_label: satisfied

cpd_smiles: COc1cc(OC)c2c(OC(=O)c3c(Cl)cccc3Cl)ccnc2c1
group_label: satisfied

cpd_smiles: COc1cc(OC)c2c(OC(=O)c3cccc(Br)c3)ccnc2c1
group_label: not satisfied

cpd_smiles: COc1cc(OC)c2c(OC(=O)c3ccccc3C)ccnc2c1
group_label: satisfied

cpd_smiles: COc1cc(OC)c2c(OC(=O)c3ccc([N+](=O)[O-])cc3)ccnc2c1
group_label: satisfied

cpd_smiles: COc1cc(OC)c2c(OC(=O)c3ccc(Cl)cc3)ccnc2c1
group_label: not satisfied

cpd_smiles: COc1cc(OC)c2c(OC(=O)c3ccccc3)ccnc2c1
group_label: not satisfied

cpd_smiles: COc1cc(OC)c2c(OC(=O)c3cccc(I)c3)ccnc2c1
group_label: not satisfied

cpd_smiles: COc1cc(OC)c2c(OS(=O)(=O)c3ccc(C)cc3)ccnc2c1
group_label: not satisfied

cpd_smiles: COc1cc(OC)c2c(OC(=O)c3ccccc3I)cc(C)nc2c1
group_label: satisfied

cpd_smiles: COc1cc(OC)c2c(OC(=O)c3ccccc3Br)ccnc2c1
group_label: satisfied

cpd_smiles: COc1cc(OC)c2c(OC(=O)c3cccc(Cl)c3)ccnc2c1
group_label: satisfied

Numbers sourced from ChEMBL document CHEMBL1154117.
